Values compiled from PubChem BioAssay AID720519.

- experimental_details: qHTS for Inhibitors of Cell Surface uPA Generation: Confirmatory Assay for Cherry-picked Compounds
- measurement_context: cell surface uPA activity generation, qHTS confirmation; series mostly up to 115 µM
Inconclusive results are not listed. Calls of active or inactive are those of the source. Calls come from the whole dose curve; as a rule, active = well fitted activation curve with a large enough effect; inconclusive = small, poorly fitted or top-dose-only effect; inactive = flat fitted curve, though single readings scatter.
Write down one outcome, taken from class 1 for active, class 0 for inactive

Exercise: Could you please tell me the result logged for `CSCC[C@H](NC(=O)[C@H](Cc1ccccc1)n1c(=O)[nH]c2ccccc2c1=O)C(=O)N1CCC[C@@H]1C(=O)O` in this assay?
Solution: class 0

Exercise: I'd appreciate the recorded outcome for Cc1ccc(CC2CC(=O)N(c3cc(C)ccc3C)C2=O)cc1 (centres undefined) from this test.
Solution: class 0

Exercise: Per the records of this test, what outcome belongs to `Cc1nc(SCC(=O)NCCN2C(=O)CSC2=O)nc(C)c1C` ?
Solution: class 0

Exercise: Record request — test call for CSc1nc(N)nc2c1ncn2CC(=O)NCC1CCCO1 (centres undefined)
Solution: class 0

Exercise: Could you please tell me the result logged for CCCOC(=O)CSC1=C(C#N)C(c2ccccc2Cl)CC(=O)N1 (centres undefined) in this assay?
Solution: class 0

Exercise: Fill in: this test's call for CC(C)NCC1CCc2cc(CO)c([N+](=O)[O-])cc2N1 (centres undefined) is ___
Solution: class 0

Exercise: Answer briefly: the call reported for `C=CCn1c(SCCN2C(=O)c3ccccc3C2=O)nc2scc(-c3ccc(F)cc3)c2c1=O` in this assay.
Solution: class 0

Exercise: For this molecule, state the assay outcome: CC(OC(=O)c1cccc(-n2cnnn2)c1)C(=O)Nc1ccc(F)c(F)c1F (centres undefined)
Solution: class 0

Exercise: What call does the record list for `CN(Cc1ccc(C(C)(C)C)cc1)C(=O)Cc1ccc(S(=O)(=O)N2CCOCC2)s1` ?
Solution: class 0

Exercise: Please let me know the test result on file for Cc1cc(C)c(S(=O)(=O)N2CCCOC2CNC(=O)C(=O)NCc2cccs2)c(C)c1 (centres undefined) .
Solution: class 0

Exercise: Hi team, can someone confirm the assay call for O=C(COc1cc2oc(=O)cc(-c3ccccc3)c2cc1Cl)NC(Cc1c[nH]c2ccc(O)cc12)C(=O)O (centres undefined) ?
Solution: class 0

Exercise: Would you mind telling me which call this test gave `COc1ccc2c(ccn2S(=O)(=O)c2ccccc2)c1` ?
Solution: class 0

Exercise: Which outcome was entered for the molecule COc1cccc(NC(=O)N2C3CCCC2CC(NC(C)=O)C3)c1 (centres undefined) in this test?
Solution: class 0

Exercise: Outcome logged for `O=C(Nc1cccc(-c2nn[nH]n2)c1)c1ccc(Cl)s1` in this assay:
Solution: class 0

Exercise: What did the test return for COc1ccc(CNC(=O)C2(CC3CC(c4ccccc4)=NO3)CCNCC2)cc1 (centres undefined) ?
Solution: class 0

Exercise: Test call, this molecule: `NC(=O)c1cc2ccncc2c2ccccc12`
Solution: class 0

Exercise: Dear all, I need the recorded test outcome for `CN(C(=O)CCn1c(=S)oc2ccccc21)c1ccc(F)cc1` , thank you.
Solution: class 0

Exercise: Please let me know the test result on file for `Cc1nn(-c2ccc(F)cc2)c(C)c1NS(=O)(=O)c1ccc(Cl)cc1` .
Solution: class 0

Exercise: // param item: `Cc1ccccc1C(=O)Nc1ccccc1N1CCCCC1` ; yields the recorded call
Solution: class 0

Exercise: I'd appreciate the recorded outcome for `COc1ccc(NS(=O)(=O)c2cc(NS(=O)(=O)c3cc(C(=O)O)ccc3OC)ccc2C)cc1` from this test.
Solution: class 0

Exercise: Which outcome was assigned to `Cc1c(C(=O)N2CCN(S(=O)(=O)c3cccs3)CC2)oc2ccc(F)cc12` in this test?
Solution: class 0

Exercise: Can you look up the reported call for `COc1ccc(-c2cccc(-c3cc(=O)oc4cc(OC)c(OC)c(OC)c34)c2)cc1` for me?
Solution: class 0

Exercise: // return assay outcome for `c1csc(CN2CCOCC2)c1`
Solution: class 0

Exercise: GET /call?item= `CCCCn1c(N)c(N(CCC(C)C)C(=O)c2sc3nc4n(c(=O)c3c2C)CCC4)c(=O)[nH]c1=O` returns the recorded outcome of this test.
Solution: class 0

Exercise: Identify the outcome logged in this assay for the molecule shown: `Cc1ccc(NC(=S)N2CCN(Cc3ccc4c(c3)OCO4)CC2)c(C)c1`
Solution: class 0

Exercise: Assay outcome for `COc1cc(CNCc2ccc3c(c2)OCO3)c([N+](=O)[O-])cc1OC` : what was it?
Solution: class 0

Exercise: Write down the call the test reported for this molecule. Item: CCOC(=O)c1c(NC(=O)CC2SC(N)=NC2=O)sc2c1CCC(C)C2 (centres undefined)
Solution: class 0

Exercise: Query: recorded result category for `COC(=O)[C@@]1(Cc2ccc(F)cc2)[C@H]2c3cc(C(=O)N(C)C)n(Cc4c(CO)[nH]cc(C)c4=O)c3C[C@H]2CN1C(=O)c1ccccc1` in this test
Solution: class 0

Exercise: Lab log entry: `COc1cccc(C(=O)NCc2ccc3[nH]c(C)cc3c2)c1` — outcome as called in the assay?
Solution: class 0

Exercise: Fill in: this test's call for `Cc1cc(C)nc(NC(=O)CSc2nccc(C)n2)n1` is ___
Solution: class 0

Exercise: Outcome? `COc1ccccc1CNC(=O)CCCn1nc(C)c2c(C)n(-c3ccccc3)nc2c1=O`
Solution: class 0

Exercise: Call for entry CC(C(=O)Nc1nccs1)c1ccc([N+](=O)[O-])cc1 (centres undefined) :
Solution: class 0

Exercise: Per the records of this test, what outcome belongs to `CCCCNC(=O)c1cc2c(-c3ccc(Cl)cc3)nn(C)c2s1` ?
Solution: class 0

Exercise: Lab log entry: CC(C)C1Oc2ccccc2N(CC(=O)NC2CCCCC2)C1=O (centres undefined) — outcome as called in the assay?
Solution: class 1

Exercise: Which outcome was entered for the molecule COc1cc(C2/C(=C(\O)c3ccc4c(c3)CC(C)O4)C(=O)C(=O)N2CC2CCCO2)cc(OC)c1OC (centres undefined) in this test?
Solution: class 0

Exercise: Field: outcome | Entry: O=C(c1ccccn1)C1CCCN(Cc2cn[nH]c2-c2cc3ccccc3o2)C1 (centres undefined)
Solution: class 0

Exercise: What outcome does the record of this test show for `O=C(CN(c1ccccc1F)S(=O)(=O)c1ccccc1)Nc1ccc2c(c1)OCCO2` ?
Solution: class 0

Exercise: I'd appreciate the recorded outcome for `CCCn1nnc(NC(=S)NC(=O)c2ccccc2OC)n1` from this test.
Solution: class 0

Exercise: Record request — test call for CCC(NC(=S)NCc1ccc(F)cc1)c1ccccc1 (centres undefined)
Solution: class 0

Exercise: Recorded test outcome, item CCCOc1ccc(CC2CCC(=O)NC2=O)cc1 (centres undefined)
Solution: class 0

Exercise: For CC1(C)C([N+](=O)[O-])C(c2ccc(F)cc2)NC(c2ccc(F)cc2)C1[N+](=O)[O-] (centres undefined) , what call appears in the results of this test?
Solution: class 0

Exercise: Fill in: this test's call for CC1=CC(C)C(C[N+]2(C)CCCCC2)C(C)C1 (centres undefined) is ___
Solution: class 0

Exercise: Tell me the assay call for CCOc1cc(C(=O)OCC(=O)c2cc(C)n(CC3CCCO3)c2C)ccc1OCC(=O)N1CCOCC1 (centres undefined) please.
Solution: class 0

Exercise: Field: outcome | Entry: `C/C(=N\NC(=S)NC(C)C)c1ccc(Cl)s1`
Solution: class 0
